target: Phosphodiesterase; PDE3 & PDE4; test: Inhibition of Sarcoplasmic Reticulum cAMP Phosphodiesterase from canine myocardium; assay type: tissue-based, Canis lupus familiaris
MEASURED PROPERTY: IC50 (nM)
Report the figure in nM without appending any unit label.

Examples with their reported IC50 follow.
MOLECULE	TEST SYSTEM	SCALE UNIT	IC50
O=C1CCC(c2ccc3c(c2)C2(CCCC2)C(=O)N3)=NN1	Phosphodiesterase; PDE3 & PDE4	nM	930
O=C1CCC(c2ccc3c(c2)C2(CCC2)C(=O)N3)=NN1	Phosphodiesterase; PDE3 & PDE4	nM	290
CC1(C)C(=O)Nc2ccc(C3=NNC(=O)CC3)cc21 [INDOLIDAN]	Phosphodiesterase; PDE3 & PDE4	nM	130

Input: Which IC50 reading was recorded for the molecule CC1CC(=O)NN=C1c1ccc2c(c1)C1(CC1)C(=O)N2 (centres undefined) ?
Output: 13

====

tested on: Canis familiaris; assay: Increased heart rate in anesthetized dogs after intravenous administration; assay type: functional, Canis lupus familiaris
Below, each entry is listed with its recorded Increase in HR.
Report the figure in % without appending any unit label.

MOLECULE	MEASURED PROPERTY	EXPERIMENTAL RESULT
O=C1CCC(c2ccc3c(c2)C2(CCCC2)C(=O)N3)=NN1	Increase in HR	14
O=C1CCC(c2ccc3c(c2)C2(CCC2)C(=O)N3)=NN1	Increase in HR	13
CC1CC(=O)NN=C1c1ccc2c(c1)C1(CC1)C(=O)N2 (centres undefined)	Increase in HR	17

Now for a further molecule.
Input: Which Increase in HR reading was recorded for the molecule CC1(C)C(=O)Nc2ccc(C3=NNC(=O)CC3)cc21 ?
Output: 11.8
